- Test system: solid tumor cell lines
- assay.summary: 3-day proliferation assay (CellTiter-Glo)
- Format: cell-based, human
- experimental.conditions: Homo sapiens, LS-1034, LS1034, Colon
Examples of compounds with documented pIC50 follow.
Kindly note that pIC50 refers to -log10 of the concentration in mol/L and answer with the value alone.

IN: Given the entry Cn1ncc(Cl)c1-c1cc(C(=O)N[C@H](CN)Cc2cccc(F)c2)sc1Cl , what pIC50 was observed with solid tumor cell lines?
OUT: 5.50

Here's the next entry for you.
IN: Given the entry Cn1ncc(Cl)c1-c1cc(C(=O)N[C@H](CN)Cc2ccc(F)c(F)c2)oc1Cl , what pIC50 was observed with solid tumor cell lines?
OUT: 5.79

----------
Examples of compounds with documented IC50 follow.
- Tested on: solid tumor cell lines
- assay.summary: 3-day proliferation assay (CellTiter-Glo)
- Assay type: cell-based, human
- experimental.conditions: Homo sapiens, DoTc2-4510, DoTc24510, Cervix
Please respond with the number in nM and leave the unit unwritten.

IN: Query: IC50; subject: Cn1ncc(Cl)c1-c1cc(C(=O)N[C@H](CN)Cc2ccc(F)c(F)c2)oc1Cl [GSK2141795]
OUT: 1380

Here's the next entry for you.
IN: Query: IC50; subject: Cn1ncc(Cl)c1-c1cc(C(=O)N[C@H](CN)Cc2cccc(F)c2)sc1Cl [GSK2110183]
OUT: 2240

----------
- System: solid tumor cell lines
- assay.summary: 3-day proliferation assay (CellTiter-Glo)
- Assay type: cell-based, human
- experimental.conditions: Homo sapiens, NCI-H292, NCIH292, Lung
Examples of compounds with documented IC50 follow.
Please respond with the number in µM and leave the unit unwritten.

IN: Query: IC50; subject: Cn1ncc(Cl)c1-c1cc(C(=O)N[C@H](CN)Cc2ccc(F)c(F)c2)oc1Cl [GSK2141795]
OUT: 2.87

---
IN: Query: IC50; subject: Cn1ncc(Cl)c1-c1cc(C(=O)N[C@H](CN)Cc2cccc(F)c2)sc1Cl [GSK2110183]
OUT: 4.82

----------
- Tested on: solid tumor cell lines
- assay.summary: 3-day proliferation assay (CellTiter-Glo)
- Assay type: cell-based, human
- experimental.conditions: Homo sapiens, BXPC-3, BXPC3, Pancreas
quantity.measured: IC50 (µM)
Please respond with the number in µM and leave the unit unwritten.

IN: Query: IC50; subject: Cn1ncc(Cl)c1-c1cc(C(=O)N[C@H](CN)Cc2ccc(F)c(F)c2)oc1Cl
OUT: 17.2

----------
- System: solid tumor cell lines
- assay.summary: 3-day proliferation assay (CellTiter-Glo)
- Format: cell-based, human
- experimental.conditions: Homo sapiens, SW48, SW48, Colon
Examples of molecules with documented pIC50 follow.
Kindly note that pIC50 refers to -log10 of the concentration in mol/L and answer with the value alone.

IN: Query: pIC50; subject: Cn1ncc(Cl)c1-c1cc(C(=O)N[C@H](CN)Cc2cccc(F)c2)sc1Cl
OUT: 6.09

Here's the next entry for you.
IN: Query: pIC50; subject: Cn1ncc(Cl)c1-c1cc(C(=O)N[C@H](CN)Cc2ccc(F)c(F)c2)oc1Cl
OUT: 6.48

----------
Examples of compounds with documented IC50 follow.
- System: solid tumor cell lines
- assay.summary: 3-day proliferation assay (CellTiter-Glo)
- Assay type: cell-based, human
- experimental.conditions: Homo sapiens, SK-MEL-28, SKMEL28, Skin

IN: Query: IC50; subject: Cn1ncc(Cl)c1-c1cc(C(=O)N[C@H](CN)Cc2ccc(F)c(F)c2)oc1Cl [GSK2141795]
OUT: 1610 nM

---
IN: Query: IC50; subject: Cn1ncc(Cl)c1-c1cc(C(=O)N[C@H](CN)Cc2cccc(F)c2)sc1Cl [GSK2110183]
OUT: 3230 nM
